MEASURED_ON: T1, human serum albumin (Homo sapiens, UniProt P02768)
T1 construct: human serum albumin (HSA), purchased from Sigma-Aldrich Japan; dissolved in phosphate buffer and dialysed; also called HSA; source: bought: Sigma-Aldrich Japan
METHOD_NOTES: SPR; Biacore T200; HSA immobilised on CM5 chip by amine coupling (~1000 RU); increasing concentrations of antibodies injected at 30 μl/min; PBS with 0.05% Tween-20; global fit, 1:1 Langmuir model
PARTICULARS: both partners purified
# reported koff; entries follow

BINDER: Z18-G32D (VHH, IMGT numbering; the methods describe vector and expression for Z18 and Z26; source: E. coli BL21 (DE3), purified (Ni-NTA, SEC)) VHH: QVQLVESGGGLVQAGDSLRLSCAASGRTFSDYAMGWFRQAPGKEREFVARINWSGTLTYYADSVKGRFTGSRDNAKNTVYLQMNSLKPEDTAVYYCAQRGDSGSNYDPSGYSYWGQGTQVTVSS
koff (s⁻¹): 0.12
//
BINDER: Z18-Y114F (VHH, IMGT numbering; the methods describe vector and expression for Z18 and Z26; source: E. coli BL21 (DE3), purified (Ni-NTA, SEC)) VHH: QVQLVESGGGLVQAGDSLRLSCAASGRTFSGYAMGWFRQAPGKEREFVARINWSGTLTYYADSVKGRFTGSRDNAKNTVYLQMNSLKPEDTAVYYCAQRGDSGSNFDPSGYSYWGQGTQVTVSS
koff (s⁻¹): 0.096
//
BINDER: Z18-R50L (VHH, IMGT numbering; the methods describe vector and expression for Z18 and Z26; source: E. coli BL21 (DE3), purified (Ni-NTA, SEC)) VHH: QVQLVESGGGLVQAGDSLRLSCAASGRTFSGYAMGWFRQAPGKELEFVARINWSGTLTYYADSVKGRFTGSRDNAKNTVYLQMNSLKPEDTAVYYCAQRGDSGSNYDPSGYSYWGQGTQVTVSS
koff (s⁻¹): 0.284
//
BINDER: single-domain VHH antibody Z18 (VHH, pRA2 vector with N-terminal pelB signal peptide; also called wild-type Z18; source: E. coli BL21 (DE3), purified (Ni-NTA, SEC); not shown: hexa-histidine, C-terminal, kept) VHH: QVQLVESGGGLVQAGDSLRLSCAASGRTFSGYAMGWFRQAPGKEREFVARINWSGTLTYYADSVKGRFTGSRDNAKNTVYLQMNSLKPEDTAVYYCAQRGDSGSNYDPSGYSYWGQGTQVTVSS
koff (s⁻¹): 0.259
//
BINDER: Z18-I56V (VHH, IMGT numbering; the methods describe vector and expression for Z18 and Z26; source: E. coli BL21 (DE3), purified (Ni-NTA, SEC)) VHH: QVQLVESGGGLVQAGDSLRLSCAASGRTFSGYAMGWFRQAPGKEREFVARVNWSGTLTYYADSVKGRFTGSRDNAKNTVYLQMNSLKPEDTAVYYCAQRGDSGSNYDPSGYSYWGQGTQVTVSS
koff (s⁻¹): 0.22
//
BINDER: Z18-R50L/G78A/S133R (VHH, IMGT numbering; the methods describe vector and expression for Z18 and Z26; source: E. coli BL21 (DE3), purified (Ni-NTA, SEC)) VHH: QVQLVESGGGLVQAGDSLRLSCAASGRTFSGYAMGWFRQAPGKELEFVARINWSGTLTYYADSVKGRFTASRDNAKNTVYLQMNSLKPEDTAVYYCAQRGDSGSNYDPSGYRYWGQGTQVTVSS
koff (s⁻¹): 0.785
//
BINDER: Z18-N85S (VHH, IMGT numbering; the methods describe vector and expression for Z18 and Z26; source: E. coli BL21 (DE3), purified (Ni-NTA, SEC)) VHH: QVQLVESGGGLVQAGDSLRLSCAASGRTFSGYAMGWFRQAPGKEREFVARINWSGTLTYYADSVKGRFTGSRDNAKSTVYLQMNSLKPEDTAVYYCAQRGDSGSNYDPSGYSYWGQGTQVTVSS
koff (s⁻¹): 0.238
